# Target Under Test: Recombinant human PKC-delta (His-tagged 345-676) (Homo sapiens)
# Construct: PKC-delta (His-tagged 345-676); His
# Assay: PKC-delta inhibition assay (HTRF KinEASE kit)
# Format: biochemical
# Settings: ratio, PKC-theta vs PKC-delta HTRF
Each entry gets not fulfilled if its PKC-theta/PKC-delta selectivity stays under 6, and fulfilled if its PKC-theta/PKC-delta selectivity is 6 or above.

Would you say CCC1C(=O)Nc2nccc(-c3cccc(N4CCNCC4)c3)c21 (stereo not drawn) [Example 21] shows PKC-theta/PKC-delta selectivity at minimum 6?
not fulfilled

Would you say C[C@@H]1CN(c2cc(C(F)(F)F)cc(-c3ccnc4c3[C@](C)(O)C(=O)N4)n2)[C@@H](C)CN1 (single isomer, unassigned) [Example 118] shows PKC-theta/PKC-delta selectivity at minimum 6?
fulfilled

Would you say C[C@H]1NCCN(c2cc(C(F)(F)F)cc(-c3ccnc4c3C(C)(C)C(=O)N4)n2)[C@H]1C [Example 127] shows PKC-theta/PKC-delta selectivity at minimum 6?
fulfilled

Would you say C[C@@H]1CN(c2cc(C(F)(F)F)cc(-c3ccnc4c3C(C)(C)C(=O)N4)n2)[C@@H](C)CN1 [Example 117] shows PKC-theta/PKC-delta selectivity at minimum 6?
fulfilled

Would you say CCC1(C)C(=O)Nc2ncc(F)c(-c3cc(C(F)(F)F)cc(N4CCNC[C@H]4C)n3)c21 (stereo partly drawn) [Example 157] shows PKC-theta/PKC-delta selectivity at minimum 6?
fulfilled

Would you say C[C@H]1CN(c2cc(C(F)(F)F)cc(-c3ccnc4c3[C@](C)(O)C(=O)N4)n2)CCN1 (single isomer, unassigned) [Example 95] shows PKC-theta/PKC-delta selectivity at minimum 6?
fulfilled

Would you say CC[C@@]1(O)C(=O)Nc2nccc(-c3cc(Cl)cc(N4CCN[C@@H](C)C4)n3)c21 (single isomer, unassigned) [Example 162] shows PKC-theta/PKC-delta selectivity at minimum 6?
fulfilled

Would you say C[C@H]1CN(c2cc(Cl)cc(-c3ccnc4c3[C@](C)(O)C(=O)N4)n2)CCN1 (single isomer, unassigned) [Example 110] shows PKC-theta/PKC-delta selectivity at minimum 6?
fulfilled

Would you say CC[C@H]1CN(c2cc(C(F)(F)F)cc(-c3ccnc4c3C(C)(O)C(=O)N4)n2)CCN1 (stereo partly drawn) [Example 71] shows PKC-theta/PKC-delta selectivity at minimum 6?
fulfilled

Would you say CC1(C)C(=O)Nc2nccc(-c3cccc(N4CCNCC4)c3Cl)c21 [Example 48] shows PKC-theta/PKC-delta selectivity at minimum 6?
not fulfilled

Would you say CO[C@]1(C)C(=O)Nc2nccc(-c3cc(C(C)(F)F)cc(N4CCNC[C@H]4C)n3)c21 (single isomer, unassigned) [Example 193] shows PKC-theta/PKC-delta selectivity at minimum 6?
fulfilled

Would you say CC1(Cc2ccccc2)C(=O)Nc2nccc(-c3cccc(N4CCNCC4)c3)c21 (stereo not drawn) [Example 49] shows PKC-theta/PKC-delta selectivity at minimum 6?
not fulfilled

Would you say C[C@@]1(O)C(=O)Nc2nccc(-c3cc(C(F)(F)F)cc(N4CC5CC(C4)N5)n3)c21 (single isomer, unassigned) [Example 149] shows PKC-theta/PKC-delta selectivity at minimum 6?
fulfilled

Would you say COc1cc(-c2ccnc3[nH]c(=O)[nH]c23)cc(N2CCNCC2)c1 [Example 9] shows PKC-theta/PKC-delta selectivity at minimum 6?
not fulfilled

Would you say CC[C@H]1CN(c2cc(Cl)cc(-c3ccnc4c3[C@@](C)(OC)C(=O)N4)n2)CCN1 (single isomer, unassigned) [Example 151] shows PKC-theta/PKC-delta selectivity at minimum 6?
fulfilled

Would you say C[C@@H]1CNCCN1c1cc(F)cc(-c2ccnc3c2C(C)(O)C(=O)N3)c1 (stereo partly drawn) [Example 59] shows PKC-theta/PKC-delta selectivity at minimum 6?
not fulfilled

Would you say CC1(C)C(=O)Nc2nccc(-c3cccc(OC4CCNCC4)c3)c21 [Example 47] shows PKC-theta/PKC-delta selectivity at minimum 6?
not fulfilled

Would you say COC1(C)C(=O)Nc2nccc(-c3cc(Cl)cc(N4CCN[C@@H](C)C4)n3)c21 (stereo partly drawn) [Example 115] shows PKC-theta/PKC-delta selectivity at minimum 6?
fulfilled

Would you say CC(F)(F)c1cc(-c2ccnc3c2C(C)(C)C(=O)N3)nc(N2CCCNCC2)c1 [Example 203] shows PKC-theta/PKC-delta selectivity at minimum 6?
fulfilled

Would you say O=c1[nH]c2nccc(-c3cc(N4CCNCC4)ccc3F)c2[nH]1 [Example 15] shows PKC-theta/PKC-delta selectivity at minimum 6?
not fulfilled

Would you say C[C@@H]1CNCCN1c1cc(C(F)(F)F)cc(-c2c(F)cnc3c2C(C)(C)C(=O)N3)n1 [Example 156] shows PKC-theta/PKC-delta selectivity at minimum 6?
fulfilled

Would you say C[C@H]1CNCCN1c1cc(-c2ccnc3c2C(C)(C)C(=O)N3)ccn1 [Example 31] shows PKC-theta/PKC-delta selectivity at minimum 6?
not fulfilled

Would you say CC1(C)C(=O)Nc2nccc(-c3cc(C(F)(F)F)nc(N4CCNCC4)n3)c21 [Example 98] shows PKC-theta/PKC-delta selectivity at minimum 6?
fulfilled

Would you say C[C@@]1(O)C(=O)Nc2nccc(-c3cc(C(F)(F)F)cc(N4CCNC(CC(F)(F)F)C4)n3)c21 (stereo partly drawn) [Example 125] shows PKC-theta/PKC-delta selectivity at minimum 6?
fulfilled

Would you say CC1(C)C(=O)Nc2nccc(-c3cc(C(F)(F)F)cc(N4CCNCC4C(F)F)n3)c21 (stereo not drawn) [Example 160] shows PKC-theta/PKC-delta selectivity at minimum 6?
fulfilled

Would you say CC[C@H]1CN(c2cc(Cl)cc(-c3ccnc4c3C(C)(C)C(=O)N4)n2)CCN1 [Example 145] shows PKC-theta/PKC-delta selectivity at minimum 6?
fulfilled

Would you say CC[C@]1(C)C(=O)Nc2nccc(-c3cc(C(C)(F)F)cc(N4CCNC[C@H]4C)n3)c21 (single isomer, unassigned) [Example 201] shows PKC-theta/PKC-delta selectivity at minimum 6?
fulfilled

Would you say C[C@@H]1CN(c2cc(Cl)cc(-c3ccnc4c3C(C)(O)C(=O)N4)n2)CCN1 (stereo partly drawn) [Example 73] shows PKC-theta/PKC-delta selectivity at minimum 6?
fulfilled

---

# Target Under Test: Recombinant human PKC-delta (His-tagged 345-676) (Homo sapiens)
# Construct: PKC-delta (His-tagged 345-676); His
# Assay: PKC-delta inhibition assay (HTRF KinEASE kit)
# Format: biochemical
# Settings: ratio, PKC-theta vs PKC-delta HTRF; binned A to G
Reported Property: PKC-theta/PKC-delta selectivity (binned)

INSERT INTO measurements (compound, target_under_test, result) VALUES
  ('C[C@@]1(O)C(=O)Nc2nccc(-c3cc(F)cc(N4CCNCC4)c3)c21 (single isomer, unassigned)', 'Recombinant human PKC-delta (His-tagged 345-676) (Homo sapiens)', 'G (a ratio of 0 to 1)'),
  ('O=c1[nH]c2nccc(-c3cc(N4CCNCC4)ccn3)c2[nH]1', 'Recombinant human PKC-delta (His-tagged 345-676) (Homo sapiens)', 'G (a ratio of 0 to 1)');

---

# Target Under Test: Recombinant human PKC-delta (His-tagged 345-676) (Homo sapiens, UniProt Q05655)
# Construct: PKC-delta (His-tagged 345-676); His
# Sequence (Q05655 345-676): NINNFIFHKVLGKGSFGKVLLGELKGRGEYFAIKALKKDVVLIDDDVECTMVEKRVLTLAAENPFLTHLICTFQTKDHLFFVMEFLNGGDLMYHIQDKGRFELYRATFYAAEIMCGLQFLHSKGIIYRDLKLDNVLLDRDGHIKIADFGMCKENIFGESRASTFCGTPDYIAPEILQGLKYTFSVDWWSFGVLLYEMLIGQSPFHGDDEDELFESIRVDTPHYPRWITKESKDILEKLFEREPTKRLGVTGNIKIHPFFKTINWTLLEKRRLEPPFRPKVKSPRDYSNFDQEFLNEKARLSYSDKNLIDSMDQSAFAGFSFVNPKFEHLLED
# Assay: PKC-delta inhibition assay (HTRF KinEASE kit)
# Format: biochemical
# Settings: ratio, PKC-theta vs PKC-delta HTRF
Each entry gets No if its PKC-theta/PKC-delta selectivity stays under 10, and Yes if its PKC-theta/PKC-delta selectivity is 10 or above.

Would you say CC[C@H]1CN(c2cc(Cl)cc(-c3ccnc4c3C(O)(CC)C(=O)N4)n2)CCN1 (stereo partly drawn) shows PKC-theta/PKC-delta selectivity at minimum 10?
No

Would you say C[C@@]1(O)C(=O)Nc2nccc(-c3cc(C(F)(F)F)cc(N4CCNC(C(F)F)C4)n3)c21 (single isomer, unassigned) shows PKC-theta/PKC-delta selectivity at minimum 10?
Yes

Would you say COC1(C)C(=O)Nc2nccc(-c3cc(F)cc(N4CCNCC4)c3)c21 (stereo not drawn) shows PKC-theta/PKC-delta selectivity at minimum 10?
No

Would you say `C[C@H]1CN(c2cc(C(F)(F)F)cc(-c3ccnc4c3C(C)(C)C(=O)N4)n2)CCCN1` shows PKC-theta/PKC-delta selectivity at minimum 10?
Yes

Would you say `C[C@@H]1NCCN(c2cc(C(F)(F)F)cc(-c3ccnc4c3[C@](C)(O)C(=O)N4)n2)[C@@H]1C` shows PKC-theta/PKC-delta selectivity at minimum 10?
Yes

Would you say C[C@H]1CN(c2cc(-c3ccnc4c3C(C)(O)C(=O)N4)cc(C(F)(F)F)c2)CCN1 (stereo partly drawn) shows PKC-theta/PKC-delta selectivity at minimum 10?
Yes

Would you say `C[C@H]1CN(c2ccc(Cl)c(-c3ccnc4c3[C@](C)(O)C(=O)N4)c2)CCN1` shows PKC-theta/PKC-delta selectivity at minimum 10?
No

Would you say `CC1(C)C(=O)Nc2ncc(Cl)c(-c3cc(F)cc(N4CCNCC4)c3)c21` shows PKC-theta/PKC-delta selectivity at minimum 10?
No

Would you say `CC[C@H]1CN(c2cc(C(F)(F)F)cc(-c3ccnc4c3C(C)(C)C(=O)N4)n2)CCN1` shows PKC-theta/PKC-delta selectivity at minimum 10?
Yes

Would you say `CC1(C)C(=O)Nc2nccc(-c3cc(C(F)(F)F)cc(N4C[C@H]5CC[C@@H](C4)N5)n3)c21` shows PKC-theta/PKC-delta selectivity at minimum 10?
Yes

Would you say C[C@H]1CNCCN1c1cc(Cl)cc(-c2ccnc3c2[C@](C)(O)C(=O)N3)n1 (single isomer, unassigned) shows PKC-theta/PKC-delta selectivity at minimum 10?
Yes

Would you say `C[C@H]1CCN(c2cc(C(F)(F)F)cc(-c3ccnc4c3C(C)(C)C(=O)N4)n2)CCN1` shows PKC-theta/PKC-delta selectivity at minimum 10?
Yes

Cited source for all entries: patent US20260035367A1
